Tested on: MS2 coat protein
method.summary: apparent KD of MS2 coat protein, switch OFF state (with FMN for OFF switches, without FMN for ON switches); designed switch direction (-1 OFF switch, 1 ON switch): -1; higher = weaker reporter binding
protocol.conditions: FMN input: 0 or 200 uM; Eterna round: R93 (includes R88 designs)
reported.property: apparent KD of MS2 coat protein (nM)
Answers are plain numbers, in nM.

Worked examples follow.
seq_text="AAAAAACAUGAGGAUCACCCAUGUGAGGAUAUCGGAAAAGGAAAAAUAAAAAAGAAGACGAGAAGGCACACCAA [Mat - Exclusion 1 - Eli mod - D74]" reported_property="apparent KD of MS2 coat protein" reading=24.6
seq_text="CUCAUGUGAGGAUAUCAGUAGUAAAAAAAUAAAAUUACUACUGAGAAGGCACAUGAGGAUCACCCAUGUGCCAA [EX4 337: Super Stable 37]" reported_property="apparent KD of MS2 coat protein" reading=27.6

Continue with the next sequence.
Lab note: AGGAAACAUGAGGAUCACCCAUGUGAGGAUAUAGAAAAGAAAAGAAAAGAAAGAAGAACUAGAAGGCACAAGAA [Neheb] gave apparent KD of MS2 coat protein of 28.8

---

Test system: MS2 coat protein
method.summary: apparent KD of MS2 coat protein; designed switch direction (-1 OFF switch, 1 ON switch): 1; higher = weaker reporter binding
protocol.conditions: input ligand: microRNA oligo, concentration not stated
Returns the class for an entry based on its apparent KD of MS2 coat protein. Class ranges: 1 = under 0.03 µM, 2 = from 0.03 µM up to 0.1 µM, 3 = 0.1 µM and over

Recorded results for 5 sequences are shown here.
seq_text="ACAUGAGACCUAGGAUAUCUUGUACCUACAUGUGACAUGAGGAUCACCCAUGUGGUAAGUAUGAGAGAGAAGGAGGAGAUAUGU [Equivalance 54 - Jieux - Same State NG 2] (Eterna round: R96, puzzle: Same State NG 2)" assigned_category=1
seq_text="GCUCGGAUGAUGACCCACAUGAGGAUCACCCAUGUGCGUGGGCAGGAUAUCUAGAUUAAGGAUGUAGAGAAGGGUCUACCGAGC [SameState NG3 #31] (Eterna round: R96, puzzle: Same State NG 3)" assigned_category=3
seq_text="CACGUCCAGGUAGGAUAUGAGGUGCCAUAGGGAACAGCCUAUGGACAUGAGGAUCACCCAUGUCCUCAGAAGGGCCAGACGUGA [Rasote] (Eterna round: R96, puzzle: Same State NG 2)" assigned_category=3
seq_text="UGAAGAUCCAUAGGAUAUCCGACACAUGAGGAUCACCCAUGUCAACCAAACGCAGCUUCGGCCGUGGAGAAGGAUGGAGCUGUG [Eternabot solution 3] (Eterna round: R96, puzzle: Same State NG 2)" assigned_category=2
seq_text="UGGCUCAGAGCAGGAUAUAUGCGAUCACAUGAGGAUCACCCAUGUCUCGAGCUUCGGCUCGAGGCAUAGAAGGGCUCUGAGCCU [SSNG2/4-B3] (Eterna round: R96, puzzle: Same State NG 2)" assigned_category=2

Exam item: For this sequence, which bin applies? AUUAAUAAUCGAGGAUAUCACGUCGAAUAGACGUGAGAAGGCGAUCAUAACAUGAGGAUCACCCAUGUAUUACAUGAAAUUAAU [SSNG1/4-B4] (Eterna round: R96, puzzle: Same State NG 1)
Marked response: 1

Exam item: For this sequence, which bin applies? AUUGCUUACGCAGGAUAUGAUGCGAAAAUUGCGUCAGAAGGGUGAAGUGACUCGUUGCAACAGGACAUGAGGAUCACCCAUGUC [SameState NG1 #91] (Eterna round: R96, puzzle: Same State NG 1)
Marked response: 3

Exam item: For this sequence, which bin applies? CCGAGUGGCGUACAGGAUAUGUUGCAUGGAACAUGAGGAUCACCCAUGUAUUUGCUCCCGCAUACGCAGAAGGGUGCGUCCUGGG [Arraquorso] (Eterna round: R96, puzzle: Same State 2)
Marked response: 2

Exam item: For this sequence, which bin applies? GAGGGACAGACCAACAUGAGGAUCACCCAUGUCCUCGCAGGUCAGGAUAUCAUGAGGAUCACCCAUGAGAAGGGACGGUGAACC (Eterna round: R96, puzzle: Same State NG 3)
Marked response: 3
